# Tested on: ACHN
# methodDescription: NCI tumour cell line growth inhibition, 48 h
Calls of active or inactive are those of the source. Rule as the data show it: active = GI50 up to about 1.1 µM and inactive = higher.
Parameter call: string, one of t for active, f for inactive

In: Outcome? O=S(=O)(c1ccccc1)c1cccc2c1NCCC2
Out: f

In: Outcome? Cc1nn(-c2cc(Cl)ccc2[N+](=O)[O-])c(C)c1Cl
Out: f

In: Outcome? CN(C)c1ccc(/C=N/CC2CCCN3CCCCC23)cc1 (configuration not stated)
Out: f

In: Outcome? CN1CCC(C(=O)NNc2ccccc2)CC1
Out: f

In: Outcome? N=C(N)N/N=C/c1c(-c2ccccc2[N+](=O)[O-])nc2sccn12
Out: f

In: Outcome? COC(=O)CCc1ccc2c(c1)CC1(Cc3ccccc3C1)C2
Out: f

In: Outcome? Cc1[nH]c(=O)nc(NCCNCCO)c1C(=O)Nc1c2ccccc2nc2ccccc12
Out: f

In: Outcome? CSc1ccsc1-c1sc(-c2cc(SC)c(-c3sc(-c4cc(SC)c(-c5sccc5SC)s4)cc3SC)s2)cc1SC
Out: f

In: Outcome? COC1CC(n2ccc(=O)[nH]c2=O)OC1CO (configuration not stated)
Out: f

In: Outcome? COc1cc(/C=C\c2ccccc2)cc(OC)c1OC
Out: f

In: Outcome? CC1(C)C(=O)OC(n2cc(F)c(=O)[nH]c2=O)C1=O (configuration not stated)
Out: f

In: Outcome? Clc1ccc(OCc2nnc(COc3ccc(OCc4nnc(COc5ccc(Cl)cc5Cl)o4)c(Cl)c3)o2)c(Cl)c1
Out: f

In: Outcome? COc1ccc(N2C(=O)/C(=C\c3cc(OC)c(OC)c(OC)c3)SC2c2ccccc2)cc1 (configuration not stated)
Out: f

In: Outcome? COc1ccc(NC(=S)Nc2c(C)n(C)n(-c3ccccc3)c2=O)cc1
Out: f

In: Outcome? Fc1ccc(C(OCCN2CCC3CCC(C2)N3CCCc2ccccc2)c2ccc(F)cc2)cc1 (configuration not stated)
Out: f

In: Outcome? CC1CC2OC(=O)CC2C[C@@H]1O[Si](C)(C)C(C)(C)C (some centres not stated)
Out: f

In: Outcome? CN(C)c1nc(Cl)c2c(-c3ccccc3)c(-c3ccccc3)oc2n1
Out: f

In: Outcome? O=C(Cc1ccccc1)NN1C(=O)/C(=C\c2cccc([N+](=O)[O-])c2)S/C1=N\c1ccccc1
Out: f

In: Outcome? Cc1ccc(S(=O)(=O)NNC(=O)c2cc(C)c(C)cc2N)cc1
Out: f

In: Outcome? CC1=C(C)C(=O)C(C2=CC(=O)c3ccccc3C2=O)=C(C2=CC(=O)c3ccccc3C2=O)C1=O
Out: f

In: Outcome? Cc1ncc(COP(=O)(O)O)c(/C=C2\SC(=S)NC2=O)c1O
Out: f

In: Outcome? N#CC(NNC(=O)Cc1ccccc1)c1c(O)ccc2ccccc12 (configuration not stated)
Out: f

In: Outcome? O=S(=O)(O)c1ccc(/N=N/c2nc(C(F)(F)F)c(C(F)(F)F)[nH]2)cc1
Out: f

In: Outcome? COc1cc(OC)nc(Nc2c(C#N)c3nc4ccccc4n3c3ccccc23)n1
Out: f

In: Outcome? COc1cc2c(cc1O)CCN(C)[C@H]2Cc1ccc(Oc2c(O)c(OC)cc3c2C[C@H]2c4c(c(OC)c(OC)c(OC)c4-3)CCN2C)cc1
Out: f

In: Outcome? Cc1cc2c(cc1Cl)Sc1n[nH]c(=O)n1S2(=O)=O
Out: f

In: Outcome? CC(=O)Nc1ccc(N2C(=O)CS(=O)(=O)C2c2cccc(Oc3ccccc3)c2)cc1 (configuration not stated)
Out: f

In: Outcome? COC(=O)c1cnc(Cl)c([N+](=O)[O-])c1
Out: f

In: Outcome? O=C(CSCC(=O)N/N=C\c1ccccc1F)N/N=C\c1ccccc1F
Out: f

In: Outcome? S=C(Nc1c2c(nc3ccccc13)CCCC2)Nc1c2c(nc3ccccc13)CCCC2
Out: f

In: Outcome? O=C(Cn1cc(-c2ccccc2)nn1)NC1CCCCC1
Out: f

In: Outcome? CC1=CN(c2ccccc2)S2=C1c1sc3c(c1N2c1ccc(Br)cc1)CCCC3 (configuration not stated)
Out: f

In: Outcome? CC1(C)OC[C@@]2([C@@H]3CC[C@@H](C3)C2(C)C)N1O
Out: f

In: Outcome? CN1CCN(C(=O)CCNC(=O)Cc2ccc(C(=O)c3ccccc3)cc2)CC1
Out: f

In: Outcome? CNc1nc(N)nc(Nc2ccc(I)cc2)c1N=O
Out: f

In: Outcome? COC1(C)OC[C@@]2(C)OC(C)C1(C)C2O[Si](C(C)C)(C(C)C)C(C)C (some centres not stated)
Out: f

In: Outcome? Cc1ccc2c(O)cc(-c3ccc(F)cc3)nc2n1
Out: f

In: Outcome? COC1CC(CC2CCC(C)C(C(C)C(=O)O)O2)OC2(OC(C)(C3CCC(C)(C4OC(C5OC(O)(CO)C(C)CC5C)CC4C)O3)CC2C)C1C (configuration not stated)
Out: t

In: Outcome? CC(C)(C)OP(=O)(OC(C)(C)C)C(O)c1ccc(/C=C(\C#N)C(N)=O)cc1 (configuration not stated)
Out: f

In: Outcome? Cc1nn(-c2ccccc2)c2c1C(c1cc3ccccc3nc1Cl)NC(=O)N2 (configuration not stated)
Out: f

In: Outcome? CCOC(=O)c1cc(/C=C/C(C)=C/C(=O)OC)oc1-c1ccccc1
Out: f

In: Outcome? Nc1nc(N)c(N=Nc2ccc([As](=O)(O)O)c(O)c2)c(N)n1
Out: f

Data provenance is ChEMBL document CHEMBL1201862.
